Field: half-life. Provide a value for each of the compounds that follow.
assay: Elimination half life in human plasma at 1 mM by HR-LC-MS analysis; assay type: ADME, cell-free; settings: read-out: beta t1/2

Below are worked cases with known answers.
1. O=C(O)Cn1c2c(c3cc(F)ccc31)CN(C(=O)c1cccs1)CC2 ... > 4 h
2. O=C(O)Cn1c2c(c3cc(F)ccc31)CN(C(=O)c1cccc(Cl)c1)CC2 ... > 4 h
3. O=C(O)Cn1c2c(c3ccccc31)CN(C(=O)c1cccc3ccccc13)CC2 ... > 4 h
4. O=C(O)Cn1c2c(c3ccccc31)CN(C(=O)c1ccccc1)CC2 ... > 4 h
5. CCc1ccc(-c2ccc(C(=O)N3CCc4c(c5ccccc5n4CC(=O)O)C3)cc2)cc1 ... > 4 h

# batch: return half-life for each of the 3 compounds below
1. O=C(O)Cn1c2c(c3cc(F)ccc31)CN(C(=O)Cc1c[nH]c3ccccc13)CC2
2. O=C(O)Cn1c2c(c3ccccc31)CN(C(=O)c1cccc(Cl)c1)CC2
3. O=C(O)Cn1c2c(c3cc(F)ccc31)CN(C(=O)Cc1cccc3ccccc13)CC2

(A)
["> 4 h", "> 4 h", "> 4 h"]

(Q) Recorded half-life of O=C(O)Cn1c2c(c3cc(F)ccc31)CN(C(=O)c1cccc3ccccc13)CC2 , please.
(A) > 4 h

* * *

assay: Solubility of the compound in aqueous buffer at pH 4; assay type: physicochemical
Field: log10 solubility. Provide a value for each of the compounds that follow.
Heads up: the numbers are on a log10 scale; they represent solubility in µg/mL.

1. O=C(O)Cn1c2c(c3ccccc31)CN(C(=O)c1cccc3ccccc13)CC2 ... 1.95
2. O=C(O)Cn1c2c(c3ccccc31)CN(C(=O)c1cccc(Cl)c1)CC2 ... 2.26
3. O=C(O)Cn1c2c(c3cc(F)ccc31)CN(C(=O)c1cccc(Cl)c1)CC2 ... 2.15
4. O=C(O)Cn1c2c(c3cc(F)ccc31)CN(C(=O)c1cccc3ccccc13)CC2 [SETIPIPRANT] ... 1.95
5. O=C(O)Cn1c2c(c3cc(F)ccc31)CN(C(=O)c1cccs1)CC2 ... 1.90

# batch: return log10 solubility for each of the 3 compounds below
1. CCc1ccc(-c2ccc(C(=O)N3CCc4c(c5ccccc5n4CC(=O)O)C3)cc2)cc1
2. O=C(O)Cn1c2c(c3cc(F)ccc31)CN(C(=O)Cc1cccc3ccccc13)CC2
3. O=C(O)Cn1c2c(c3cc(F)ccc31)CN(C(=O)Cc1c[nH]c3ccccc13)CC2

(A)
1: 0.00; 2: 1.32; 3: 2.06

* * *

experiment: Solubility of the compound in water at pH 3.9; type: physicochemical
quantity-kind: solubility (µg/mL)
Answers are plain numbers, in µg/mL.

(Q) Recorded solubility of O=C(O)Cn1c2c(c3cc(F)ccc31)CN(C(=O)c1cccs1)CC2 , please.
(A) 50

* * *

molecular target: Prostaglandin D2 receptor 2 (Homo sapiens); test: Antagonist activity at CRTH2 receptor in human eosinophils assessed as inhibition of PGD2-induced cell shape change incubated for 10 mins prior to PGD2 induction measured after 5 mins by FACS flow cytometric analysis in presence of human plasma
Sequence (Q9Y5Y4 whole entry): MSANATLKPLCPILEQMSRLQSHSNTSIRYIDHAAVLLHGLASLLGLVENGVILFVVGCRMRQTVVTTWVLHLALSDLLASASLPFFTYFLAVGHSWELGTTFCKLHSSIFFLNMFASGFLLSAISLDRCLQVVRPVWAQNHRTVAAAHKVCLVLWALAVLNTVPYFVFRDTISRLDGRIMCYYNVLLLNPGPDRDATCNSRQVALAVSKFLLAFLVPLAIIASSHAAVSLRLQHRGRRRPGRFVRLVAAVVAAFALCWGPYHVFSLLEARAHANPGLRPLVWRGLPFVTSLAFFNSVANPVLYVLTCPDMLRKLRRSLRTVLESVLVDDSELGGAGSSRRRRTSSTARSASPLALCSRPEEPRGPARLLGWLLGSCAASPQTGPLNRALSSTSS
quantity-kind: IC50 (nM)
Answers are plain numbers, in nM.

Below are worked cases with known answers.
1. O=C(O)Cn1c2c(c3cc(F)ccc31)CN(C(=O)CCc1cccc3ccccc13)CC2 ... 210
2. O=C(O)Cn1c2c(c3cc(C(F)(F)F)ccc31)CN(C(=O)c1ccccc1)CC2 ... 130
3. O=C(O)Cn1c2c(c3ccccc31)CN(C(=O)c1ccccc1)CC2 ... 110
4. O=C(O)Cn1c2c(c3ccccc31)CN(C(=O)c1cccc3ccccc13)CC2 ... 1120

# batch: return IC50 for each of the 2 molecules below
1. O=C(O)Cn1c2c(c3cc(C(F)(F)F)ccc31)CN(C(=O)c1cccc3ccccc13)CC2
2. O=C(O)Cn1c2c(c3cc(Cl)ccc31)CN(C(=O)c1cccc3ccccc13)CC2

(A)
[180, 100]

* * *

Field: half-life. Provide a value for each of the molecules that follow.
test: Half life in Wistar rat at 2 mg/kg, iv and 10 mg/kg, po; assay type: ADME, organism-based; details: in vivo
Numbers only, in h.

1. CCc1ccc(-c2ccc(C(=O)N3CCc4c(c5ccccc5n4CC(=O)O)C3)cc2)cc1 ... 0.5

Turning to the following molecule.
(Q) Recorded half-life of O=C(O)Cn1c2c(c3cc(F)ccc31)CN(C(=O)c1cccc3ccccc13)CC2 , please.
(A) 6

* * *

Target: Prostaglandin D2 receptor (Homo sapiens, UniProt Q13258)
Sequence (Q13258 whole entry): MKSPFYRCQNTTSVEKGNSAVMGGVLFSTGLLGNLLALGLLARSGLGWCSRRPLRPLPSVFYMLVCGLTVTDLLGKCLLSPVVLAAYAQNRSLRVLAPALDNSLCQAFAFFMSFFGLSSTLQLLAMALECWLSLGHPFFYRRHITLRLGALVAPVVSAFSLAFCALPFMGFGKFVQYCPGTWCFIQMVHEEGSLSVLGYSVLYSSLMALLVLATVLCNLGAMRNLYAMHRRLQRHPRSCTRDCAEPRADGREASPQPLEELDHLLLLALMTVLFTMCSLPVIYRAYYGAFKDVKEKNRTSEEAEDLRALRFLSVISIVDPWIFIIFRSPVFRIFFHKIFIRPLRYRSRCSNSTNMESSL
Assay: Displacement of [3H]PGD2 from recombinant human prostanoid DP1 receptor expressed in CHO cells after 90 mins by scintillation counting analysis
quantity-kind: IC50 (nM)
Answers are plain numbers, in nM.

Below are worked cases with known answers.
1. O=C(O)Cn1c2c(c3cc(Cl)ccc31)CN(C(=O)c1cccc3ccccc13)CC2 ... 690
2. CCc1ccc(-c2ccc(C(=O)N3CCc4c(c5cccc(Cl)c5n4CC(=O)O)C3)cc2)cc1 ... 120

(Q) For Prostaglandin D2 receptor (Homo sapiens, UniProt Q13258), provide IC50 of O=C(O)Cn1c2c(c3cc(F)ccc31)CN(C(=O)c1cccc3ccccc13)CC2 please.
(A) 1290

* * *

Field: Ratio IC50. Provide a value for each of the compounds that follow.
organism: Homo sapiens; assay: Selectivity factor, ratio of IC50 for recombinant human prostanoid DP1 receptor to IC50 for recombinant human CRTH2 receptor
Give bare numbers.

1) Cc1ccc2c(c1)c1c(n2CC(=O)O)CCN(C(=O)c2cccc3ccccc23)C1 ... 540
2) O=C(O)Cn1c2c(c3cc(F)cc(Cl)c31)CN(C(=O)c1cccc3ccccc13)CC2 ... 4.1
3) O=C(O)Cn1c2c(c3cc(Cl)ccc31)CN(C(=O)c1cccc3ccccc13)CC2 ... 230
4) O=C(O)Cn1c2c(c3cc(C(F)(F)F)ccc31)CN(C(=O)c1cccc3ccccc13)CC2 ... 200

# batch: return Ratio IC50 for each of the 2 compounds below
1. O=C(O)Cn1c2c(c3cc(F)cc(Cl)c31)CN(C(=O)c1cccc(Cl)c1)CC2
2. CCc1ccc(-c2ccc(C(=O)N3CCc4c(c5cccc(Cl)c5n4CC(=O)O)C3)cc2)cc1

(A)
[22, 5.2]

* * *

biological target: Prostaglandin E2 receptor EP2 subtype (Homo sapiens); test: Inhibition of beta-arrestin binding to recombinant human prostanoid EP2 receptor expressed in HEK293 cell membranes by beta-lactamase complementation assay
Sequence (P43116 whole entry): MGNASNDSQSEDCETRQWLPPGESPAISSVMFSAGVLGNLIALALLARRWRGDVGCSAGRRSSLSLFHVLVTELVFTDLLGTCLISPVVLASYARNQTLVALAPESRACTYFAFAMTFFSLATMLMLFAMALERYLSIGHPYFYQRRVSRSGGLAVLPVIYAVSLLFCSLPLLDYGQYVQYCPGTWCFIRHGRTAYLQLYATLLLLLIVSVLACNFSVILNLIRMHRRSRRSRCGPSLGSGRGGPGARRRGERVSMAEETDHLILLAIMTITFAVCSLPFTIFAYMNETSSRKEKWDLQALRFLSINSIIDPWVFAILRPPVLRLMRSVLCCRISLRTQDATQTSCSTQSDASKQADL
quantity-kind: IC50

Below are worked cases with known answers.
1) O=C(O)Cn1c2c(c3ccccc31)CN(C(=O)c1cccc(Cl)c1)CC2 ... > 10 µM
2) O=C(O)Cn1c2c(c3cc(F)ccc31)CN(C(=O)c1cccc(Cl)c1)CC2 ... > 10 µM
3) CCc1ccc(-c2ccc(C(=O)N3CCc4c(c5ccccc5n4CC(=O)O)C3)cc2)cc1 ... 6.4 µM
4) CCc1ccc(-c2ccc(C(=O)N3CCc4c(c5cccc(Cl)c5n4CC(=O)O)C3)cc2)cc1 ... > 10 µM
5) O=C(O)Cn1c2c(c3cc(F)ccc31)CN(C(=O)c1cccs1)CC2 ... > 10 µM
6) O=C(O)Cn1c2c(c3cc(F)cc(Cl)c31)CN(C(=O)c1cccc(Cl)c1)CC2 ... > 10 µM

# batch: return IC50 for each of the 2 molecules below
1. Cc1ccc2c(c1)c1c(n2CC(=O)O)CCN(C(=O)c2cccc3ccccc23)C1
2. O=C(O)Cn1c2c(c3cc(F)cc(Cl)c31)CN(C(=O)c1cccc3ccccc13)CC2

(A)
1: > 10 µM; 2: 2.7 µM

* * *

assay: Intrinsic clearance in rat hepatocytes measured per 10^6 cells at 1 uM by LC/MS-MS analysis; format: ADME, cell-based, Hepatocyte; conditions: read-out: CLH
Field: hepatocyte CLint at 1 µM. Provide a value for each of the compounds that follow.
Give bare numbers, in µL/min/1e6 cells.

Below are worked cases with known answers.
1. O=C(O)Cn1c2c(c3cc(F)ccc31)CN(C(=O)c1cccc(Cl)c1)CC2 ... 1.9
2. O=C(O)Cn1c2c(c3cc(F)ccc31)CN(C(=O)c1cccs1)CC2 ... 2.1
3. CCc1ccc(-c2ccc(C(=O)N3CCc4c(c5ccccc5n4CC(=O)O)C3)cc2)cc1 ... 5.3

# batch: return hepatocyte CLint at 1 µM for each of the 4 compounds below
1. O=C(O)Cn1c2c(c3ccccc31)CN(C(=O)c1ccccc1)CC2
2. O=C(O)Cn1c2c(c3cc(F)ccc31)CN(C(=O)c1cccc3ccccc13)CC2
3. O=C(O)Cn1c2c(c3ccccc31)CN(C(=O)c1cccc(Cl)c1)CC2
4. O=C(O)Cn1c2c(c3ccccc31)CN(C(=O)c1cccc3ccccc13)CC2

(A)
0.9
3.1
1.4
1.5
